Recorded values, source patent US20230279482A1.

- tgt: zinc-responsive transcription factor smtB (Synechococcus elongatus)
- Sequence (P30340 whole entry): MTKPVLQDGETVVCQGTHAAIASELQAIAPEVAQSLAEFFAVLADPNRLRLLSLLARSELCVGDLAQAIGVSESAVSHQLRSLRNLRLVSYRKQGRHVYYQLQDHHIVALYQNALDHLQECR
- test method notes: biochemical
reported property: EC50 (µM)

1) [Zn+2] [zinc]
4.8
